Entry source: patent US20230012273A1

Experimental target: T1, cynomolgus SIRPα extracellular domain + His-tag (EGM_02252) (cynomolgus monkey)
T1 construct: also called CySIRPα EGM_02252; cynoSIRPα
T1 chain: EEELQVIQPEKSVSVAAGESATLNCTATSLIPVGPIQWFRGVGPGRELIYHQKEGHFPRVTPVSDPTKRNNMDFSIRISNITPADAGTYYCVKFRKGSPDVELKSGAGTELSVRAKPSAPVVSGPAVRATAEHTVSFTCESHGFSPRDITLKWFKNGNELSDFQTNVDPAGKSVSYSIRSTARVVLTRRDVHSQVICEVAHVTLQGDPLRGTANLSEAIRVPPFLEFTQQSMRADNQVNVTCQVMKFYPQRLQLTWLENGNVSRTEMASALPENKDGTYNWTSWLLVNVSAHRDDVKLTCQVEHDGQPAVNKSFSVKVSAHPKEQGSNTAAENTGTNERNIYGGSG
Protocol: SPR, Ab captured, ECD-His analyte
Reported property: Kd (nM)
Write the value in nM as a bare number.

Antibody A5 (antibody, human IgG1, kappa, L234A L235A, V domains shown) VH: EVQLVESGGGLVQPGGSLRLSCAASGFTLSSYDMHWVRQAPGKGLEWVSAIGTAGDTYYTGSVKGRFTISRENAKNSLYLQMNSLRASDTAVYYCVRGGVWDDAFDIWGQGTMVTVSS VL: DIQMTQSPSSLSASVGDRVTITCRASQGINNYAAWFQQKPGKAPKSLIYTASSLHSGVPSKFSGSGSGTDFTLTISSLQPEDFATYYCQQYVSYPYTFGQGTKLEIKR ... 533
Antibody A1 (antibody, human IgG1, kappa, L234A L235A, V domains shown, also called Antibody Al) VH: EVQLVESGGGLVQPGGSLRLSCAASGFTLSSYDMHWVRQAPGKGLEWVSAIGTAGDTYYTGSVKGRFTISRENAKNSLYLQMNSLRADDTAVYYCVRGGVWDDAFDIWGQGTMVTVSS VL: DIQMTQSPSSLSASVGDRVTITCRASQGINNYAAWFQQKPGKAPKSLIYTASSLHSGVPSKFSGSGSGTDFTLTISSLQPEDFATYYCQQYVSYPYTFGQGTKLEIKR ... 543

Switching to the query record.
Record Antibody A15 (antibody, human IgG1, kappa, L234A L235A, V domains shown) VH: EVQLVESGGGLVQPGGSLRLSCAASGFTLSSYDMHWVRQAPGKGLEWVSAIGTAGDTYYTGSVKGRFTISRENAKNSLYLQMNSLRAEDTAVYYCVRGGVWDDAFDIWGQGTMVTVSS VL: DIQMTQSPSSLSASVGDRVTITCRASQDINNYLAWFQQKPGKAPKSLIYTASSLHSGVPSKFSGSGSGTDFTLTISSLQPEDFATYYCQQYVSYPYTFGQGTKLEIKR . Reported Kd: 223
